tested on: UACC-257 melanoma; assay: NCI-60 one-dose screen, 48 h; conditions: 10 µM unless noted
Compounds without any hit were thinned out: in the full panel of roughly 83,000, 20% have a hit. Calls of active or inactive are those of the source. Rule for the calls: active = growth percent below 10; inactive = the rest.
Give your call using only these classes: active, inactive

Ask | Short answer needed: outcome of this test for `Cn1c(=O)c2c(nc(NC3=NS(=O)(=O)c4ccccc43)n2Cc2ccccc2)n(C)c1=O` ?
Reply | inactive

Ask | Which result was noted for this compound in the test: COc1ccc(C2=CN3CC=CCC3CC2=O)cc1 (stereo unspecified)
Reply | inactive

Ask | Returns: the outcome recorded for COc1ccc(C2C(C#N)=C(N)Oc3c2sc2c(Br)cccc32)cc1 (stereo unspecified) in this assay.
Reply | inactive

Ask | Which outcome did this test record for the compound `Cn1c(=O)c2c(c3ccccc31)OC(N)=C(C#N)C21C(=O)c2ccccc2C1=O` ?
Reply | inactive

Ask | // outcome(item) with item = COC(=O)C1=C(C)NC(C)=C(C(=O)OCC(C)C)C1c1ccccc1[N+](=O)[O-] (stereo unspecified)
Reply | inactive

Ask | Record lookup: outcome of this test for `COc1ccc2nc3ccccc3c(NCc3ccc(F)cc3)c2c1` ?
Reply | active

Ask | Outcome logged for O=C1CCC(C(=O)NN(c2ccccc2)c2ccccc2)N1 (stereo unspecified) in this assay:
Reply | inactive

Ask | Recorded test outcome, item `CS(=O)(=O)Cc1cnc(C2OCCO2)s1`
Reply | inactive

Ask | How did this test come out for `Cn1cc(-c2nc(-c3c[nH]c4ccncc34)cs2)c2cc(Br)ccc21` ?
Reply | active

Ask | Field: outcome | Entry: `Clc1ccc(-c2nc(-c3c[nH]c4ncccc34)cs2)cc1`
Reply | inactive

Ask | What is the recorded call for this compound in the test? `O=c1[nH]c(-c2ccc(Cl)cc2)cn1-c1ccc(-n2cc(-c3ccc(Cl)cc3)[nH]c2=O)cc1`
Reply | inactive

Ask | What call does the record list for COc1ccc(C(O)c2cc3c(N)c(C(=O)Nc4cccc(Cl)c4)sc3nc2C)cc1 (stereo unspecified) ?
Reply | inactive

Ask | For this compound, state the assay outcome: `COc1ccc2c(c1)c(-c1ccc(-c3cn(C)c4ccc(OC)cc34)[nH]1)cn2C`
Reply | inactive

Ask | Tell me the recorded outcome of this test for `Nc1c(C(=O)Nc2ccncc2)sc2nc3c(cc12)CCCCC3` .
Reply | inactive

Ask | Name the outcome recorded for `COc1ccc(C2=C/C(=C\c3ccc(Cl)cc3)C(=O)N2/N=C/c2ccc(Cl)cc2)cc1` in the assay.
Reply | inactive

Ask | Which outcome did this test record for the compound `CCCCCCCCCCCCCCCCCCOc1ccccc1CC(=O)OCC[N+]1(C)CCOCC1` ?
Reply | inactive

Ask | I would be grateful if you could indicate the recorded call for `CC1=C(C(=O)n2c3ccccc3c3ccccc32)C(c2cccc([N+](=O)[O-])c2)C(C(=O)n2c3ccccc3c3ccccc32)=C(C)N1` .
Reply | inactive

Ask | Fill in: this test's call for `CN1CCN(Cc2cc(NC(=O)c3cccc(C#Cc4cccc5[nH]nc(N)c45)c3)cc(C(F)(F)F)c2)CC1` is ___
Reply | inactive

Ask | Test call for this compound, please: `CCCCC(=O)Nc1ncc(Cc2ccccc2Cl)s1`
Reply | inactive

Ask | Tell me the recorded outcome of this test for `CC(=O)c1c(Nc2ccc(F)c(F)c2F)[nH]c2c(F)cc(F)cc2c1=O` .
Reply | active

Ask | Could you kindly confirm the outcome this assay logged for O=C1OCC2=C1C(c1cccc(F)c1)c1cc3c(cc1N2CCO)OCO3 (stereo unspecified) ?
Reply | inactive

* * *

tested on: MDA-MB-231 breast; assay: NCI-60 one-dose screen, 48 h; settings: 10 µM unless noted
This is part of a sample that, as a whole, favours compounds with a hit. Of some 83,000 tested, about 20% had one in any assay. Active and inactive are the calls of the source. Rule for the calls: active = growth percent below 10; inactive = the rest.
Give one outcome, nothing more. List: TRUE (active), FALSE (inactive)

Ask | Hi, do you know how `Cc1c2cc[nH]c(=O)c2c(C)c2c1[nH]c1ccc(OC(=O)c3ccccc3)cc12` came out in this test?
Reply | FALSE

Ask | Status in this test for `Cc1nc2ccccc2c(/C=C/c2ccc(C(F)(F)F)cc2)c1C(=O)/C=C/c1ccccc1` ?
Reply | TRUE

Ask | Each molecule tested received a call. Report the one for `COc1cc2nc(Nc3cccc(F)c3)nc(Nc3cc(C)[nH]n3)c2cc1OC` .
Reply | TRUE

Ask | Assay outcome for COc1ccc(C2=CN3CC=CCC3CC2=O)cc1 (stereo not given) : what was it?
Reply | FALSE

Ask | What call does the record list for `COc1cccc(/C=C/C(=O)c2cc3c(N)c(C(=O)Nc4cccc(Cl)c4C)sc3nc2C)c1` ?
Reply | TRUE

* * *

test system: SK-OV-3 ovarian; experiment: NCI-60 one-dose screen, 48 h; details: 10 µM unless noted
Compounds without any hit were thinned out: in the full panel of roughly 83,000, 20% have a hit. Calls of active or inactive are those of the source. The calls were made as follows: active = growth percent below 10; inactive = the rest.
A correct response names exactly one class from T for active, F for inactive

Ask | Which result was noted for this compound in the test: `Cc1nc2sc(C(=O)Nc3ccccc3)c(N)c2cc1C(=O)/C=C/c1ccccc1`
Reply | F

Ask | Which outcome was entered for the compound `CCOC(=O)c1c(C)c2c(n1C)CSc1cc(S(=O)(=O)c3ccccc3)c(=O)[nH]c1-2` in this test?
Reply | F

Ask | How was `C[C@@H](CO)[C@@H]1CC[C@]2(C(=O)N3CCN(C)CC3)CC[C@]3(C)[C@H](CC[C@@H]4[C@@]5(C)CC[C@H](O)C(C)(C)[C@@H]5CC[C@]43C)[C@@H]12` classified in this test?
Reply | F

Ask | Recorded test call requested for O=C(/C=C/C12c3ccccc3C(c3ccccc31)C1C(=O)NC(=O)C12)c1ccc(F)cc1 (stereo not drawn)
Reply | T

Ask | Test call for this compound, please: `Cc1[nH]c(C(=O)Nc2cccc(OC3CCNCC3)c2)c(Cl)c1Cl`
Reply | F

Ask | Status in this test for `N#CCC1=NC(c2cccs2)=Nc2ccccc2S1` ?
Reply | F

Ask | Per the records of this test, what outcome belongs to `COc1ccc2c(c1)c(-c1ccc(-c3cn(C)c4ccc(OC)cc34)[nH]1)cn2C` ?
Reply | F

Ask | Status in this test for `CCn1cc(C2=C(c3cn(C)c4ncccc34)C(=O)NC2=O)c2cccnc21` ?
Reply | F

Ask | Can you look up the reported call for COc1ccc(C2C(C#N)=C(N)Oc3c2sc2c(Br)cccc32)cc1 (stereo not drawn) for me?
Reply | F

Ask | Short answer needed: outcome of this test for `Nc1c(C(=O)Nc2cccc3ncccc23)sc2nc3c(cc12)C(=O)CCC3` ?
Reply | F

Ask | Outcome? COC(=O)/C(CCC=C(C)C)=C1\[C@@H](OC(C)=O)C[C@@]2(C)[C@H]1CC(=O)[C@H]1[C@@]3(C)CCC(N4CCCC4)[C@@H](C)[C@@H]3CC[C@@]12C (stereo partly drawn)
Reply | F

Ask | Tell me the assay call for `CCOC(=O)NN1CC(O)=C(c2nc(-c3ccc(Br)cc3)cs2)C1=N` please.
Reply | F

Ask | Which outcome was entered for the compound `CCc1cccc(Sc2cc(C(=O)N3Cc4ccc(OCCN(C)C)cc4C3)ccc2O)c1` in this test?
Reply | F

Ask | Give the logged outcome of this assay for the following compound: `C[N+](C)(C/C=C/c1ccccc1)Cc1ccccc1`
Reply | F

Ask | In this assay, the call recorded for `COc1cc2c3c(c1O)-c1ccccc1[C@@H]1OC(=O)N(CC2)[C@H]31` was what?
Reply | F

Ask | Status in this test for `O=C1Nc2ccc(F)cc2/C1=C\c1nc(-c2ccccc2F)n2ccccc12` ?
Reply | F

Ask | State the result this test recorded for `CCCCCCCCn1ccc2cc(NC(=O)Cn3cc(CN4CCCCCC4)nn3)ccc21` .
Reply | F

Ask | Kindly provide the recorded test outcome for the following compound: `CC(=O)Nc1c(Cl)cc(Cl)c2c1Cc1cc([N+](=O)[O-])ccc1-2`
Reply | F

Ask | Per the records of this test, what outcome belongs to `O=C1/C(=C/c2ccc(C(F)(F)F)cc2)COc2ccc(O)cc21` ?
Reply | F

Ask | Please share the test call associated with CCOC(=O)C1=C(c2ccccc2)N=c2s/c(=C/c3ccc(Br)cc3)c(=O)n2C1c1ccc(O)cc1 (stereo not drawn) .
Reply | F

Ask | Look up the recorded call for `CC[C@@H](c1ccc2cc(OC)ccc2c1)C(C)(C)C(=O)F` in this test.
Reply | F

Ask | What did the test return for `CCOc1ccc(NC(=O)c2cc(OC)c(OC)c(OC)c2)cc1` ?
Reply | F

Ask | State the result this test recorded for `O=C(Nc1ccc(F)cc1)Nc1ccccc1CNc1nc(Nc2ccc(OCCN3CCCC3)cc2)ncc1Cl` .
Reply | F

Ask | Could you kindly confirm the outcome this assay logged for COc1ccc(C(O)c2cc3c(N)c(C(=O)Nc4cccc(Cl)c4)sc3nc2C)cc1 (stereo not drawn) ?
Reply | F

Ask | Which result was noted for this compound in the test: `Cc1c2ccccc2nc2c1ccc1cccnc12`
Reply | F

Ask | Write down the call the test reported for this compound. Item: CCN1C(=O)N(CC)C2C1NN=c1s/c(=C3\C(=O)N(CCc4ccccc4)c4ccccc43)c(=O)n12 (stereo not drawn)
Reply | F

Ask | Hello, I am checking results. What call was entered for O=C(CCC(=O)c1nc2ncccc2[nH]1)NN1C(=O)CSC1c1ccc(Cl)cc1 (stereo not drawn) ?
Reply | F

Ask | Give the logged outcome of this assay for the following compound: `CCCCCCCCn1ccc2cc(NC(=O)Cn3cc(CN4CCC(C)CC4)nn3)ccc21`
Reply | F

Ask | Per the assay record, what outcome was assigned to `CCOC(=O)Cn1c(=O)c2c3ccccc3n(C)c2n2nnc(-c3ccccc3)c12` ?
Reply | F

Ask | Lab log entry: `CC[C@H](CC[C@@H](C)[C@H]1CC[C@H]2[C@@H]3CC[C@@H]4CC(=O)/C(=C\c5ccncc5)C[C@]4(C)[C@H]3CC[C@]12C)C(C)C` — outcome as called in the assay?
Reply | F

Ask | // param item: CCN(CCO)CC(C)Nc1ccc([N+](=O)[O-])c2sc3ccccc3c(=O)c12 (stereo not drawn) ; yields the recorded call
Reply | F

Ask | I'd appreciate the recorded outcome for CC(C)CN1CC(C(=O)Nc2ccc3c(c2)-c2ccccc2C3)CC1=O (stereo not drawn) from this test.
Reply | F

Ask | What did the test return for `C/C(=C(\c1ccc(OCCN2CCCCCC2)cc1)c1ccc(OC(=O)Cc2ccccc2)cc1)c1ccc(Cl)cc1` ?
Reply | F

Ask | Per the records of this test, what outcome belongs to `CCOC(=O)c1c(C)nc2c(c1N)CC(=O)N2Cc1cc(OC)c(OC)c(OC)c1` ?
Reply | F

Ask | Which outcome was assigned to `O=C(Nc1cccnc1Nc1ccc(Cl)cc1)c1cn(Cc2ccc(F)cc2)nn1` in this test?
Reply | F

Ask | What is the recorded call for this compound in the test? COc1ccc(C2=NN(C(C)=O)C(c3ccc(Oc4ccnc5cc(Cl)ccc45)c(OC)c3)C2)cc1 (stereo not drawn)
Reply | F

Ask | // param item: `O=C(CSc1nc2ccc([N+](=O)[O-])cc2[nH]1)Nc1ccc(Br)cc1` ; yields the recorded call
Reply | F

Ask | Could you check what this test reported for `COCCCOc1cc(C[C@@H](C[C@H](N)[C@@H](O)C[C@H](C(=O)NCC(C)(C)C(N)=O)C(C)C)C(C)C)ccc1OC` ?
Reply | F
